- target_entity: T1, IL-23R (human, UniProt Q5VWK5 24-629)
- T1 sequence (looked up): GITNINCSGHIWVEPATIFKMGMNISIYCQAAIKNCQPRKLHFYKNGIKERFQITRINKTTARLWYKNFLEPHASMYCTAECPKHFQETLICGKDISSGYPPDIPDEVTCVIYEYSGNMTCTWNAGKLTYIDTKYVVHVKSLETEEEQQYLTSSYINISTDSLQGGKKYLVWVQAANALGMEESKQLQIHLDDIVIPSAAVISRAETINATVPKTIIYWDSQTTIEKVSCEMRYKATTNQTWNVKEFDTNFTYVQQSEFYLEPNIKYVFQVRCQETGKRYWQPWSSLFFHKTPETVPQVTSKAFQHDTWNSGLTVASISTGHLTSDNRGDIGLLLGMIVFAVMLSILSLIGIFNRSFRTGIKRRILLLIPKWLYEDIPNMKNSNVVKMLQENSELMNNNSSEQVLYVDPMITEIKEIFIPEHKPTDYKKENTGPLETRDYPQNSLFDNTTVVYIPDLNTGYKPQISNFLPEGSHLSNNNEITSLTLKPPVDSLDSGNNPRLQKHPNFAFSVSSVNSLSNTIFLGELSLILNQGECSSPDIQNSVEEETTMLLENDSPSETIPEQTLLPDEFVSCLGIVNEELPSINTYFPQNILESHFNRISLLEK
- assay_protocol: cell-based or functional assay
Numbered stars: 1 amine (or outer) side, 2 acyl side, 3 side chain; on linkers, the order of the positions; unused ones are H or OH. Bridge positions count the residues as written; N and C are the ends. Square brackets hold non-standard residues; d marks the D form. Trp(7-Et) = 7-ethyl-tryptophan, CCc1cccc2c(C[C@H](N[*:1])C(=O)[*:2])c[nH]c12; His(π-Bom) = N[C@@H](Cc1cncn1COCc1ccccc1)C(=O)O; Trp(7-Me) = Cc1cccc2c(C[C@H](N)C(=O)O)c[nH]c12; 2Nal = N[C@@H](Cc1ccc2ccccc2c1)C(=O)O; AEF = NCCOc1ccc(C[C@H](N)C(=O)O)cc1; Cit = NC(=O)NCCC[C@H](N)C(=O)O; Pen = CC(C)(S)[C@H](N)C(=O)O; αMeK = C[C@](N)(CCCCN)C(=O)O; Aib = CC(C)(N)C(=O)O
assay_readout: pStat3 HTRF (nM) IC50

Challenge: Would you mind telling me what pStat3 HTRF (nM) IC50 value was observed for Ac-[Pen]NT[Trp(7-Me)]K(Ac)[Pen][His(π-Bom)][2Nal][αMeK]K(Ac)N[dL]-NH2 (disulfide 1-6) [SEQ ID NO: 291] ?
Response given: > 100 nM

Challenge: Would you mind telling me what pStat3 HTRF (nM) IC50 value was observed for Ac-[Pen]NT[Trp(7-Et)]K(Ac)[Pen][AEF][2Nal][αMeK]K(Ac)N[dL]-NH2 (disulfide 1-6 (inferred)) [SEQ ID NO: 284] ?
Response given: < 1 nM

Challenge: Would you mind telling me what pStat3 HTRF (nM) IC50 value was observed for Ac-[Pen]NT[Trp(7-Me)][Cit][Pen][AEF][2Nal][αMeK]K(Ac)N[Aib]A-NH2 (disulfide 1-6; SMILES CC(=O)NCCCC[C@H](NC(=O)[C@](C)(CCCCN)NC(=O)[C@H](Cc1ccc2ccccc2c1)NC(=O)[C@H](Cc1ccc(OCCN)cc1)NC(=O)[C@H]1NC(=O)[C@H](CCCNC(N)=O)NC(=O)[C@H](Cc2c[nH]c3c(C)cccc23)NC(=O)[C@H]([C@@H](C)O)NC(=O)[C@H](CC(N)=O)NC(=O)[C@@H](NC(C)=O)C(C)(C)SSC1(C)C)C(=O)N[C@@H](CC(N)=O)C(=O)NC(C)(C)C(=O)N[C@@H](C)C(N)=O) [SEQ ID NO: 342] ?
Response given: < 1 nM

Challenge: Would you mind telling me what pStat3 HTRF (nM) IC50 value was observed for XNTXQXXXXKNX (Ac-[Pen]-NT-[W(7-Me)]-Q-[Pen]-Phe[4-(2-aminoethoxy)]-[2-Nal]-[a-MeLeu]-[Lys(Ac)]-N-[bA]-NH2; Pen-Pen disulfide) [SEQ ID NO: 201] ?
Response given: < 1 nM
